Ref: patent US8946203B2

- TESTED ON: human LTA4 hydrolase (Homo sapiens)
- Sequence (P09960 whole entry): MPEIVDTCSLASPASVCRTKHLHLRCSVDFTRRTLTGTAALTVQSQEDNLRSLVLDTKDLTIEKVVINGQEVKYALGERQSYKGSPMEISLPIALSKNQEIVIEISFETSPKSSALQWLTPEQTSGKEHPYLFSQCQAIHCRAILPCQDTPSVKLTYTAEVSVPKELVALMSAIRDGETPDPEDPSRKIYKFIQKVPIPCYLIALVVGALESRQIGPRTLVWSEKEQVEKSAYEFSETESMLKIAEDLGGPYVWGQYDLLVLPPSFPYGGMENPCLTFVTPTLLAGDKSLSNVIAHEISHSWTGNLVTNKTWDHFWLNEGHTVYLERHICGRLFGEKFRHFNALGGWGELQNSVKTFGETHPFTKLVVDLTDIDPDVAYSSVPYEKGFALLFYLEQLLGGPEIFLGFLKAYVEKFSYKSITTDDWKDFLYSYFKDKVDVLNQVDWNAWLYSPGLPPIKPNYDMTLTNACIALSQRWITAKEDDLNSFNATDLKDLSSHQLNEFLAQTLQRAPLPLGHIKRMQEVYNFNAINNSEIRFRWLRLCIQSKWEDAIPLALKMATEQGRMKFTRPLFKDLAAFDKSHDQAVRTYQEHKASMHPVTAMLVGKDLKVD
- PROTOCOL TEXT: LTA4H Enzyme assay (cleavage of Arg-AMC, fluorescence)
- Assay type: biochemical
- TEST SETTINGS: LTA4H Enzyme 1 nM, Arg-AMC substrate 50 μM, room temperature 1 h, fluorescence; read-out: IC50 values of LTA4H Enzyme assay
// reported IC50 per item
ENDPOINT LABEL: IC50 (nM)

In [3]: df
Out[3]:
                                    compound                            tested_on  units_symbol  meas_value
 0  c1ccc2c(c1)OC[C@H](c1ccc(CN3CCC(c4nnn[nH]4)CC3)cc1)O2  human LTA4 hydrolase (Homo sapiens)            nM        0.13
 1  O=C(O)CCCC1CCN(Cc2ccc(C3COc4ccccc4O3)cc2)CC1 (racemic)  human LTA4 hydrolase (Homo sapiens)            nM        0.43
 2  CN1CC(NCc2ccc([C@H]3COc4ccccc4O3)cc2)CCC1=O (stereo partly drawn)  human LTA4 hydrolase (Homo sapiens)            nM        0.87
 3  COCC(=O)N1CCCN(Cc2ccc([C@H]3COc4cccnc4O3)cc2)CC1  human LTA4 hydrolase (Homo sapiens)            nM        0.48
 4  c1cnc2c(c1)OCC(c1ccc(CN3CCOCC3)cc1)O2 (racemic)  human LTA4 hydrolase (Homo sapiens)            nM        1.14
 5  CN(C)C(=O)CC1CCN(Cc2ccc([C@H]3COc4cccnc4O3)cc2)CC1  human LTA4 hydrolase (Homo sapiens)            nM        0.45
 6  COCC(C)NCc1ccc([C@H]2COc3ccccc3O2)cc1 (stereo partly drawn)  human LTA4 hydrolase (Homo sapiens)            nM         1.8
 7  CS(=O)(=O)N1CCCC12CCN(Cc1ccc([C@H]3COc4ccccc4O3)cc1)C2 (stereo partly drawn)  human LTA4 hydrolase (Homo sapiens)            nM        0.91
 8  NC(=O)N1CC2CN(Cc3ccc([C@H]4COc5cccnc5O4)cc3)CC2C1 (stereo partly drawn)  human LTA4 hydrolase (Homo sapiens)            nM        0.09
 9  O=C(O)c1ccc(CC2CCN(Cc3ccc([C@H]4COc5ccccc5O4)cc3)CC2)cc1  human LTA4 hydrolase (Homo sapiens)            nM        0.29
10  O=C1CCC2(CCN(Cc3ccc([C@H]4COc5cccnc5O4)cc3)C2)N1 (stereo partly drawn)  human LTA4 hydrolase (Homo sapiens)            nM        0.12
11  NC(=O)N1CCN(Cc2ccc([C@H]3COc4cccnc4O3)cc2)CC1  human LTA4 hydrolase (Homo sapiens)            nM        0.84
12  CN(C)C(=O)C1CCN(Cc2ccc([C@H]3COc4ccccc4O3)cc2)CC1  human LTA4 hydrolase (Homo sapiens)            nM        0.32
13  F[C@H]1CCN(Cc2ccc(C3COc4ccccc4O3)cc2)C1 (mixture of isomers)  human LTA4 hydrolase (Homo sapiens)            nM        3.03
14  O=C1CCN(Cc2ccc([C@H]3COc4ccccc4O3)cc2)CCN1  human LTA4 hydrolase (Homo sapiens)            nM        1.73
15  O=C(CO)N1CCN(Cc2ccc([C@H]3COc4cccnc4O3)cc2)CC1  human LTA4 hydrolase (Homo sapiens)            nM         0.7
16  N#CC1CCN(Cc2ccc([C@H]3COc4cccnc4O3)cc2)CC1  human LTA4 hydrolase (Homo sapiens)            nM        0.16
17        CN(C)Cc1ccc([C@H]2COc3ccccc3O2)cc1  human LTA4 hydrolase (Homo sapiens)            nM        4.51
